system: NCI-H460 lung; test: NCI tumour cell line growth inhibition, 48 h
Quantity Name: TGI (µM)
Write the number in µM without appending the unit.

Example results:
{"columns": ["Compound", "Target Or Test System", "Quantity Name", "Unit Info", "Experimental Value"],
 "data": [
  ["Cc1ccnc2c1c(=O)c1ccccc1n2C", "NCI-H460 lung", "TGI", "µM", 44.9],
  ["O=[N+]([O-])/C(C(Cl)=C(Cl)Cl)=C(/Sc1ccccc1)N1CCOCC1", "NCI-H460 lung", "TGI", "µM", 27.1]
]}

Q: Report its TGI with NCI-H460 lung as the test system: O=C(/C(Cl)=C/c1ccccc1)c1ccccc1
Ans: 30.5

Q: Report its TGI with NCI-H460 lung as the test system: O=[N+]([O-])c1cc(Br)cc2c1[nH]c1ccc(Br)cc12
Ans: 66.6

Q: Report its TGI with NCI-H460 lung as the test system: CCOC(=O)NNC1(SC)NC(=O)c2c(cc(Cl)oc2=O)O1 (stereo unspecified)
Ans: 23.7

###

test system: CAKI-1 renal; assay: NCI tumour cell line growth inhibition, 48 h
Quantity Name: TGI

{"columns": ["Compound", "Target Or Test System", "TGI"],
 "data": [
  ["CN(/N=N/c1nc(OCc2ccccc2)c2[nH]cnc2n1)C(=O)N(C)/N=N/c1nc(OCc2ccccc2)c2[nH]cnc2n1", "CAKI-1 renal", "63.5 µM"]
]}

Q: Look up TGI of Cc1ccc(S(=O)(=O)OCC23CCC(C4CC42)C2CC23)cc1 (configuration not stated) and report it.
Ans: > 100 µM

Q: Look up TGI of CCC(/C=C/c1ccccc1)=N\NC(=S)N/N=C(/C=C/c1ccccc1)CC and report it.
Ans: > 100 µM

Q: Look up TGI of Cc1cc(-c2nc3ccc(O)cc3s2)ccc1N and report it.
Ans: > 100 µM

###

Listed below: TGI values for each entry.
tested on: K-562 leukemia; assay: NCI tumour cell line growth inhibition, 48 h

Example results:
{"columns": ["Compound", "TGI"],
 "data": [
  ["CSc1cc(Cl)c(C)cc1S(=O)(=O)NC(=O)NNc1ccccn1", "> 100 µM"],
  ["N#Cc1nc(Cc2ccccc2)oc1N", "> 100 µM"],
  ["Cc1cc(S(=O)(=O)NC#N)c(S/C(=N\\Nc2ccc([N+](=O)[O-])cc2)c2ccccc2)cc1Cl", "42.9 µM"],
  ["CCC(/C=C/c1ccccc1)=N\\NC(=S)N/N=C(/C=C/c1ccccc1)CC", "98.8 µM"],
  ["COc1cccc2c1C(=O)c1ccc3cc(CO)cc(O)c3c1C2=O", "3.74 µM"],
  ["CNC(=O)CNC(=O)CCC(=O)N(C)C", "> 100 µM"]
]}

Q: Report its TGI with K-562 leukemia as the test system: C=C1C(C[C@@H]2O[C@H]3C[C@H]4O[C@@]5(C[C@@H]6O[C@]7(C[C@H](C)[C@@H]8O[C@@H]9CC(C(O)CO)O[C@@H]9C[C@@H]8O7)C[C@H](C)[C@@H]6O5)C[C@H]4O[C@H]3[C@H](C)[C@H]2O)O[C@@H](CC[C@@H]2O[C@@H](CC[C@@]34CC5O[C@H]6C(O[C@H]7CC[C@H](CC(=O)OC)O[C@@H]7[C@@H]6O3)[C@H]5O4)CC2=C)C[C@H]1C (stereo partly drawn)
Ans: > 1 µM

Q: Report its TGI with K-562 leukemia as the test system: COC[C@H]1OC(=O)c2coc3c2[C@@]1(C)C1=C(C3=O)[C@@H]2CCC(=O)[C@@]2(C)C[C@H]1OC(C)=O
Ans: > 100 µM

Q: Report its TGI with K-562 leukemia as the test system: Cc1ccc(NNc2cc(=O)[nH]c(=O)[nH]2)cc1Cl
Ans: > 100 µM

Q: Report its TGI with K-562 leukemia as the test system: COc1ccc(C2=C(c3cn(C)c4ccccc34)C(=O)NC2=O)cc1OC
Ans: > 25 µM

Q: Report its TGI with K-562 leukemia as the test system: O=C(NCCCCNCCCNC(=O)C(F)(F)F)C(F)(F)F
Ans: > 100 µM

###

test system: EKVX NSCLC; experiment: NCI tumour cell line growth inhibition, 48 h
Quantity Name: TGI

{"columns": ["Molecule", "TGI"],
 "data": [
  ["COc1cc2c(OC)c(c1)CCCC1=CC(=O)C=C(CCC2)C1=O", "> 87.4 µM"],
  ["Cc1cc2c(c(C#N)c1C)NC(=O)C(CC(=O)O)C2=O (stereo unspecified)", "> 100 µM"],
  ["CC(=O)O/C(=C(/C#N)C(=O)O)C1C(C(=O)O)C(c2ccccc2[N+](=O)[O-])C=C(c2ccco2)N1c1ccncc1 (stereo unspecified)", "22.1 µM"]
]}

Q: Look up TGI of CCc1ccc(CCC(=O)Nc2ncc(Cc3ccccc3)s2)o1 and report it.
Ans: > 100 µM

Q: Look up TGI of CSCCCNC(=O)c1csc([C@@H](CSC)NC(=O)CCNC(=O)[C@@H](NC(=O)OCC(Br)(Br)Br)C(C)O)n1 (stereo partly specified) and report it.
Ans: > 100 µM

###

tested on: 786-0 renal; experiment: NCI tumour cell line growth inhibition, 48 h
Listed below: TGI values for each entry.

Q: Look up TGI of CCOC(=O)c1ccc(Nc2nc3ccc(C(F)(F)F)cc3nc2-c2ccccc2)cc1 and report it.
Ans: > 100 µM

Q: Look up TGI of O=C(Nc1nccs1)c1cc(C2=CC=CC([N+](=O)[O-])C=C2)nc(=S)[nH]1 (stereo unspecified) and report it.
Ans: > 100 µM

Q: Look up TGI of Cc1ccc(C2=Nc3ccccc3NC(=O)C2)cc1 and report it.
Ans: > 100 µM

Q: Look up TGI of CCCC(=O)N[C@@H](Cc1cc(I)c(O)c(I)c1)C(=O)NCCCNCCCCNCCCNC(=O)[C@@H](N)CCCN=C(N)N and report it.
Ans: > 100 µM

Q: Look up TGI of CC1C=C(NCC2(CO)CCC2)NC(N)=N1 (stereo unspecified) and report it.
Ans: > 100 µM

Q: Look up TGI of COc1ccc(C2=C(c3cn(C)c4ccccc34)C(=O)NC2=O)cc1OC and report it.
Ans: > 25 µM

###

test system: MDA-N; experiment: NCI tumour cell line growth inhibition, 48 h
Quantity Name: TGI

Q: Look up TGI of CN(C)CCNC(=O)c1cc([N+](=O)[O-])ccn1 and report it.
Ans: 30.7 µM

Q: Look up TGI of CCC(/C=C/c1ccccc1)=N\NC(=S)N/N=C(/C=C/c1ccccc1)CC and report it.
Ans: > 100 µM

###

test system: NCI-H226 lung; assay: NCI tumour cell line growth inhibition, 48 h
Listed below: TGI values for each entry.

Example results:
{"columns": ["Molecule", "Target Or Test System", "Experimental Value"],
 "data": [
  ["CN(C)CCNC(=O)c1cc([N+](=O)[O-])ccn1", "NCI-H226 lung", "> 100 µM"],
  ["O=S(=O)(O)Nc1ccc(-c2nc3ccccc3s2)cc1Cl", "NCI-H226 lung", "> 100 µM"],
  ["CSc1cc(Cl)c(C)cc1S(=O)(=O)NC(=O)NNc1ccccn1", "NCI-H226 lung", "> 100 µM"],
  ["Cc1c(C(=O)CC(=O)C(=O)Nc2cccc(C(F)(F)F)c2)[n+](=O)c2ccccc2n1[O-]", "NCI-H226 lung", "80.8 µM"],
  ["CCOC(=O)c1ccc(Nc2nc3ccc(C(F)(F)F)cc3nc2-c2ccccc2)cc1", "NCI-H226 lung", "> 100 µM"],
  ["Cn1c2ccccc2n2c3ccccc3c(=S)c(C#N)c12", "NCI-H226 lung", "> 100 µM"],
  ["O=Cc1[nH]c2ccccc2c1Br", "NCI-H226 lung", "> 100 µM"],
  ["CCOC(=O)c1cc2cc(CSc3ccccc3)ccc2oc1=O", "NCI-H226 lung", "> 100 µM"],
  ["CC1=CC[C@H](C)C(C)(C)C1/C=C/C(C)=C/CC[C@@]1(CO)[C@H](CCCO)/C(=C(/C)C=O)CC[C@]1(C)O (stereo partly specified)", "NCI-H226 lung", "14.4 µM"],
  ["NC(=O)C1=C(c2ccccc2)c2ccccc2C1=O", "NCI-H226 lung", "37.5 µM"]
]}

Now consider the entry below.
Q: Look up TGI of Cc1cc2c(cc1Cl)Sc1nnc(C)n1S2(=O)=O and report it.
Ans: > 100 µM

###

Listed below: TGI values for each entry.
system: T-47D breast; assay: NCI tumour cell line growth inhibition, 48 h
Write the number in µM without appending the unit.

Example results:
{"columns": ["Compound", "Unit Info", "TGI"],
 "data": [
  ["C=CC1(CBr)CCC(C(C)(C)Br)O1 (centres undefined)", "µM", 15.5],
  ["NC(=O)C1=C(c2ccccc2)c2ccccc2C1=O", "µM", 40.9],
  ["Cc1nc(NC(=S)Nc2ccc(F)cc2)sc1C(=O)NNC(=S)Nc1ccc(F)cc1", "µM", 20.7],
  ["COC(=O)c1ccc(NCC2=CC(=O)c3ccccc3C2=O)cc1", "µM", 32.5],
  ["CCc1oc2ccccc2c1C(=O)c1cc(Br)c(O)c(Br)c1", "µM", 53.6]
]}

Q: Look up TGI of O=C(/C=C/c1ccc(Cl)c(Cl)c1)CCN1CCN(CCC(=O)/C=C/c2ccc(Cl)c(Cl)c2)CC1 and report it.
Ans: 77.4

Q: Look up TGI of COc1cc2c(OC)c(c1)CCCC1=CC(=O)C=C(CCC2)C1=O and report it.
Ans: 43.5
